Measured inhibition of growth at 10 µM by item
# System: MDA-MB-435
# Assay protocol: Cytotoxicity against human MDA-MB-435 cells assessed as growth inhibition at 10 uM after 48 hrs by sulphorhodamine B assay
# Assay type: functional
# Particulars: MDA-MB-435, 48 h, read-out: GI
Readout name: inhibition of growth at 10 µM

Molecule: COc1ccc(-c2c3c(nc4ncn(N)c(=N)c24)C(C)CCC3)cc1 (stereo not given)
Value: 19%
--
Molecule: CC1CCCc2c1nc1[nH]c(=O)nc(N)c1c2-c1ccc(Cl)cc1 (stereo not given)
Value: < 10%
--
Molecule: CC1CCCc2c1nc1[nH]c(=S)n(-c3ccccc3)c(=N)c1c2-c1ccc(Cl)cc1 (stereo not given)
Value: < 10%
--
Molecule: COc1ccc(-c2c3c(nc4nc[nH]c(=O)c24)C(C)CCC3)cc1 (stereo not given)
Value: < 10%
--
Molecule: CCSc1nc(N)c2c(-c3ccc(Cl)cc3)c3c(nc2n1)C(C)CCC3 (stereo not given)
Value: 14.5%
--
Molecule: CC1CCCc2c1nc1[nH]c(=S)nc(N)c1c2-c1ccc(Cl)cc1 (stereo not given)
Value: < 10%
--
Molecule: CC1CCCc2c1nc1nc(SCC(=O)c3ccccc3)nc(N)c1c2-c1ccc(Cl)cc1 (stereo not given)
Value: 13%
--
Molecule: CC1CCCc2c1nc1ncnc(N)c1c2-c1ccc(Cl)cc1 (stereo not given)
Value: < 10%
--
Molecule: CC1CCCc2c1nc(NC(=S)NC(=O)c1ccccc1)c(C#N)c2-c1ccc(Cl)cc1 (stereo not given)
Value: < 10%
--
Molecule: COc1ccc(-c2c3c(nc4ncnc(N)c24)C(C)CCC3)cc1 (stereo not given)
Value: < 10%
